System: iPSC-CMs, iPSC-ECs and HUVECs phenotypes
assay-explanation: ToxPi 2.0 integration of POD values and physicochemical descriptors
Parameters: species or system human
measurement-parameters: ToxPi-scaled (0-1) score; iPSC endothelial cells, tube formation, 18 h
Given measured endo.tlps.18hr, output condition met if it is greater than or equal to 0.3 and condition not met if not.

INSERT INTO measurements (smiles_representation, classification) VALUES
  ('Clc1cccc(-c2cccc(Cl)c2)c1', 'condition not met'),
  ('Clc1ccc(Cl)c(-c2c(Cl)ccc(Cl)c2Cl)c1', 'condition not met'),
  ('COc1ccc(-c2ccc(Cl)cc2)cc1', 'condition met');

[Q] Hi, just wondering whether Oc1cccc(-c2ccc(Cl)cc2)c1 shows endo.tlps.18hr of 0.3 or higher.
[A] condition met

[Q] I'd appreciate it if you could say whether Oc1cc(Cl)c(-c2cc(Cl)ccc2Cl)cc1Cl has endo.tlps.18hr at least equal to 0.3.
[A] condition met

====

Entries and their activity at 10 µM
Test system: HUVECs
assay-explanation: Tube formation (tubulogenesis) assay in HUVECs, 18 h
Assay type: cell-based, human
measurement-parameters: Homo sapiens, HUVEC, 18 h, HUVECs, 10.00 µM, 0.00 µM = 100.00, read-out: huvec.tlps.18hr
Counter-ions that a name gives are not always drawn.
The response must be a number in % with no trailing unit.

Sample records with activity at 10 µM:
INSERT INTO measurements (compound, attribute_measured, assay_result) VALUES
  ('Clc1ccc(-c2ccccc2)cc1 [PCB3]', 'activity at 10 µM', 74.2),
  ('Oc1cc(Cl)cc(-c2cccc(Cl)c2)c1 [5-OH PCB 11]', 'activity at 10 µM', 102),
  ('O=S(=O)(O)Oc1cc(-c2ccccc2)ccc1Cl [3-yl PCB 3 sulfate]', 'activity at 10 µM', 112),
  ('Clc1ccc(Cl)c(-c2cc(Cl)ccc2Cl)c1 [PCB52]', 'activity at 10 µM', 95);

[Q] Provide only the value of recorded activity at 10 µM for COc1ccc(-c2ccc(Cl)cc2)cc1 [4'-OMe PCB3]
[A] 122

[Q] Provide only the value of recorded activity at 10 µM for Oc1cccc(-c2ccc(Cl)cc2)c1 [3'-OH PCB3]
[A] 66.1

====

System: iCell cardiomyocytes (human iPSC-derived cardiomyocytes)
assay-explanation: High-content imaging of cytotoxicity and mitochondrial integrity in iPSC-CMs
Format: cell-based
measurement-parameters: Homo sapiens, Cardiomyocyte, 24 h, 0.10 µM; 0.00 µM = 100.00; read-out: cm.tc.24hrs
Experimental: Details on cardiomyocyte cell culture are described in detail elsewhere ([Grimm et al. 2015b]; [Sirenko et al. 2013a]). […] Live cell counts for each cell suspension were determined by trypan blue staining and cells were further diluted to provide final cell densities of 2×10^5 viable cells/ml. […] Phenotypic responses were quantitatively assessed using concentration–response modeling as detailed elsewhere ([Sirenko et al. 2017]). […]
Counter-ions that a name gives are not always drawn.
Quick list: viability at 0.1 µM per entry.
Give the value; after it, write the unit.

[Q] Return viability at 0.1 µM (reported value) for this compound: Clc1ccc(-c2ccccc2)cc1
[A] 95.9%

[Q] Answer with the recorded viability at 0.1 µM of Oc1ccc(-c2cccc(Cl)c2)cc1Cl only.
[A] 99.9%

[Q] Tell me measured viability at 0.1 µM for Oc1ccc(-c2ccc(Cl)cc2)cc1 please.
[A] 99%

[Q] Determine its reported viability at 0.1 µM: O=S(=O)(O)Oc1cc(Cl)ccc1-c1ccccc1 [2-yl PCB 3 sulfate]
[A] 101%
